# PROTOCOL DESCRIPTION: Metabolic stability in Kunming mouse brain assessed as half life measured upto 480 mins by RP-HPLC analysis
# Format: ADME, tissue-based
QUANTITY: log10(half-life) (log10 of the value in h)
Field: value | Transform: log10 | Quantity: half-life | Unit: h

>>> experimental_result("N=C(N)NCCC[C@@H](NC(=O)[C@@H](CCCNC(=N)N)NC(=O)CNC(=O)[C@@H]1CSSC[C@H](NC(=O)[C@@H](N)Cc2ccc(O)cc2)C(=O)N[C@@H](Cc2ccccc2)C(=O)N[C@@H](Cc2ccccc2)C(=O)N1)C(=O)O")
0.61
>>> experimental_result("N=C(N)NCCC[C@@H](NC(=O)[C@@H](CCCNC(=N)N)NC(=O)CNC(=O)[C@@H]1CSSC[C@H](NC(=O)[C@@H](N)Cc2ccc(O)cc2)C(=O)N[C@@H](Cc2ccccc2)C(=O)N[C@@H](Cc2ccc(Cl)cc2)C(=O)N1)C(=O)O")
0.77
>>> experimental_result("Cc1cc(O)cc(C)c1C[C@H](N)C(=O)N[C@H]1CSSC[C@@H](C(=O)NCC(=O)N[C@H](CCCNC(=N)N)C(=O)N[C@H](CCCNC(=N)N)C(=O)O)NC(=O)[C@H](Cc2ccc(Cl)cc2)NC(=O)[C@H](Cc2c[nH]c3ccccc23)NC1=O")
0.87
>>> experimental_result("N=C(N)NCCC[C@@H](NC(=O)[C@@H](CCCNC(=N)N)NC(=O)CNC(=O)[C@@H]1CSSC[C@H](NC(=O)[C@@H](N)Cc2ccc(O)cc2)C(=O)N[C@@H](Cc2c[nH]c3ccccc23)C(=O)N[C@@H](Cc2ccc(Cl)cc2)C(=O)N1)C(=O)O")
0.76
>>> experimental_result("NC(=O)[C@H](Cc1ccccc1)NC(=O)[C@H](Cc1ccccc1)NC(=O)[C@@H]1CCCN1C(=O)[C@@H](N)Cc1ccc(O)cc1 [ENDOMORPHIN 2]")
-0.59
>>> experimental_result("Cc1cc(O)cc(C)c1C[C@H](N)C(=O)N[C@H]1CSSC[C@@H](C(=O)NCC(=O)N[C@H](CCCNC(=N)N)C(=O)N[C@H](CCCNC(=N)N)C(=O)O)NC(=O)[C@H](Cc2ccc(Cl)cc2)NC(=O)[C@H](Cc2ccccc2)NC1=O")
0.85

Okay, now this compound:
## Input Field request: log10(half-life) | item: N=C(N)NCCC[C@@H](NC(=O)[C@@H](CCCNC(=N)N)NC(=O)CNC(=O)[C@@H]1CSSC[C@H](NC(=O)[C@@H](N)Cc2ccc(O)cc2)C(=O)N[C@@H](Cc2c[nH]c3ccccc23)C(=O)N[C@@H](Cc2ccccc2)C(=O)N1)C(=O)O
## Output 0.63
